Origin of values: ChEMBL document CHEMBL3988442

Target: Proteasome subunit beta (Trypanosoma cruzi)
Test: Trypanosoma cruzi proteasome chymotrypsin-like activity (TcProtChymo) assay.
Assay type: functional
Set-up: scale not given: in the data most compounds retested in dose-response had high values
Settings: 9.37 µM
Quantity measured: Percent Effect (%)
Provide the reading as a plain figure in %.

[
  {
    "Compound": "CCc1nc2ccccc2c(=O)n1CC1(O)CCN(S(C)(=O)=O)CC1",
    "Data value": 10.8
  },
  {
    "Compound": "Cc1cccc(C(=O)Nc2ccc(OC3CCN(C)CC3)cc2)c1",
    "Data value": 7.82
  },
  {
    "Compound": "O=C(NCC1CC1)[C@H]1C[C@H]2OCC[C@H]2N(CCc2ccccc2)C1",
    "Data value": 16.4
  }
]

[ask] Query (compound): O=S(=O)(c1ccccc1)N1CCC2(CCCN2CC2CCCC2)C1 (stereo not given) ; field requested: Percent Effect
[reply] 13.3

[ask] // next record COc1c(C2CCCN2C(=O)c2ccc3cc[nH]c3c2)c(C)nn1C (stereo not given)
[reply] 7.68

* * *

Biological target: Arginase-2, mitochondrial (Homo sapiens) (UniProt P78540)
Sequence (P78540 whole entry): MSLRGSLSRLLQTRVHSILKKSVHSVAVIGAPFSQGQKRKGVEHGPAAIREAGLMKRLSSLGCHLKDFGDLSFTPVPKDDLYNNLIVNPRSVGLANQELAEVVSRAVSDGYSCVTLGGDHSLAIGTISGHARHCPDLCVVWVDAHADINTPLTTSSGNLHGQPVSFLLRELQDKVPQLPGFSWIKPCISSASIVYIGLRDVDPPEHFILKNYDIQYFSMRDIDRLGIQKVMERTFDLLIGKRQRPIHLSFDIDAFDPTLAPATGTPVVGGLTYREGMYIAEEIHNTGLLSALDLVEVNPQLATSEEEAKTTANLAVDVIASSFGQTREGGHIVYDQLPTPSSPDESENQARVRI
Assay: in vitro enzyme assay to detect the production of urea directly proportional to the activity of Arginase II
Type: functional
Design: scale not given: in the data most compounds retested in dose-response had high values
Conditions: 33.3 µM
# Percent Effect per record follows
I only need the number, in %, no unit after it.

[
  {
    "Compound": "O=C(C1CC1)N1CCC(c2nc(O)c3c(n2)CCN(C2CCCC2)C3)C1 (configuration not stated)",
    "Data value": 1.17
  },
  {
    "Compound": "COc1ccccc1OCC(=O)Nc1ncccc1OC(F)F",
    "Data value": 4.86
  },
  {
    "Compound": "Cn1cc(CN2CCCn3cnc(COCC4CC4)c3C2)cn1",
    "Data value": -55.7
  },
  {
    "Compound": "O=C(O)C(c1ccc2c(c1)OCCO2)N1CCCCCC1 (configuration not stated)",
    "Data value": 4.69
  },
  {
    "Compound": "COCc1c(C(=O)O)nnn1Cc1cccc(C(F)(F)F)c1",
    "Data value": -8.98
  }
]

Now take the following compound into account.
[ask] # get_value(readout='Percent Effect', item= `CC(C)C(=O)N1CCN(C(=O)c2cscn2)[C@H]2CS(=O)(=O)C[C@H]21` )
[reply] 4.42

* * *

Measured Percent Effect of individual entries
Biological target: Tyrosyl-tRNA synthetase, putative (Trypanosoma cruzi (strain CL Brener))
Sequence (whole entry): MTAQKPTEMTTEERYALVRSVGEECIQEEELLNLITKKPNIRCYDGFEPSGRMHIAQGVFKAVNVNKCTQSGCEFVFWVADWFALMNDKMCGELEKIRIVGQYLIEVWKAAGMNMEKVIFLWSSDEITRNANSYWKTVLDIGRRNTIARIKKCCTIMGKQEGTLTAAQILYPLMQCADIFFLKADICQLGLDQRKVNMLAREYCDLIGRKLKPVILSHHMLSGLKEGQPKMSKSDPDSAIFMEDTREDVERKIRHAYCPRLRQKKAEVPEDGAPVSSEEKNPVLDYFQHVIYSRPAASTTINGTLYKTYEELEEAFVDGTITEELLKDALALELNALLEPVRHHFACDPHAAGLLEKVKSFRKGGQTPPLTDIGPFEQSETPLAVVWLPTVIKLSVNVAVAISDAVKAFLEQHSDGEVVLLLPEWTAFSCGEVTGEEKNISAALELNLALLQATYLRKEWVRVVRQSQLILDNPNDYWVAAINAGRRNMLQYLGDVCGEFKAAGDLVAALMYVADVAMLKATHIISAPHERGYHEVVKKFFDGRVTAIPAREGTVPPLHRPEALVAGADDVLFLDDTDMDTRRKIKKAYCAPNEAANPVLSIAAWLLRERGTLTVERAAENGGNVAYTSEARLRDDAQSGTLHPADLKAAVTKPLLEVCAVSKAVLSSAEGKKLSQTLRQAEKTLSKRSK
Assay: Trypanosoma cruzi tyrosyl tRNA synthetase (TcYRS) _High Tyrosine SOP
Assay type: functional
Design: scale not given: in the data most compounds retested in dose-response had high values
Conditions: 30 µM
Reply with the number and its unit after it.

Use these answered entries as a reference point.
[
  {
    "Compound": "CC1CCCN(CCNC(=O)c2ccn(-c3ccccc3)n2)C1 (configuration not stated)",
    "Data value": "8.74%"
  },
  {
    "Compound": "COCC(=O)N1CC[C@H]2C[C@@H](c3nnc(C4CC4)o3)O[C@@H]2C1",
    "Data value": "4.17%"
  },
  {
    "Compound": "Cc1ncccc1Oc1nccnc1C1CCN(C(C)C)CC1",
    "Data value": "-31.2%"
  },
  {
    "Compound": "N#Cc1ccc(N2CCN(C(=O)c3cc(C4CC4)[nH]n3)CC2)c(F)c1",
    "Data value": "4.95%"
  },
  {
    "Compound": "CC(C)N(CC(N)=O)Cc1csc(COc2ccc(F)cc2)n1",
    "Data value": "5.42%"
  }
]

[ask] Which Percent Effect is listed for Cc1csc(C2CCCN(C(=O)c3ccc(=O)n(C)n3)C2)n1 (configuration not stated) ?
[reply] -1.07%

[ask] Further, for `Cc1ccc(NC2CCN(C(=O)CN(C)C3CC3)CC2)nn1` ?
[reply] 4.17%

[ask] Subsequent entry: `CC(C)n1ccnc1CN1CCCN(C(=O)COC2CCCC2)CC1`
[reply] -1.04%

[ask] Same thing, different compound: `O=C(NCCN1CCCCC1)c1nc2ccccc2c(=O)[nH]1`
[reply] 0%

[ask] Cool, now CC1CCN(Cc2cnc(S(=O)(=O)CC3CC3)n2CC2CCCO2)CC1 (configuration not stated)
[reply] -1.05%

[ask] Also `N#Cc1cccc(CN2CC[C@@H]3[C@@H]2CC(=O)N3Cc2cccnc2)c1` , if possible.
[reply] 3.19%

[ask] # iterate: `CCOC1CCN(C(=O)c2c(Cl)c3ccccc3n2C)CC1`
[reply] -2.73%

* * *

Molecular target: Proteasome subunit beta (Trypanosoma cruzi) (UniProt O96673)
Sequence (whole entry): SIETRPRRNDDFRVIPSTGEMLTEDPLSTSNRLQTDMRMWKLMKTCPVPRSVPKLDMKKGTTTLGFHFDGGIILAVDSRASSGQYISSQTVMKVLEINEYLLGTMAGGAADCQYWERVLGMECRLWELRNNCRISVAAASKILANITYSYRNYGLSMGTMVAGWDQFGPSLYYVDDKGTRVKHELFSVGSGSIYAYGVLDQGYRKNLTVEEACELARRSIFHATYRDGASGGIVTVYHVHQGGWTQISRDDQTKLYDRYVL
Experiment: Trypanosoma cruzi proteasome chymotrypsin-like activity (TcProtChymo) assay.
Type: functional
Design: scale not given: in the data most compounds retested in dose-response had high values
Conditions: 9.37 µM
Consider the following compounds and their measured Percent Effect readings.
Use % as the unit, but write only the number.

[
  {
    "Compound": "CCc1csc(C2CCCN(C(=O)c3c[nH]c(C)n3)C2)n1 (stereo not drawn)",
    "Quantity measured": "Percent Effect",
    "Data value": -3.88
  },
  {
    "Compound": "CC(C)(C)c1n[nH]c(C2CN(C(=O)c3cc(Cl)c[nH]3)CCO2)n1 (stereo not drawn)",
    "Quantity measured": "Percent Effect",
    "Data value": 17.2
  },
  {
    "Compound": "Cc1csc(CNC(=O)N(C)Cc2cnn(C)c2)n1",
    "Quantity measured": "Percent Effect",
    "Data value": 16.5
  },
  {
    "Compound": "CC(O)CN(CC(=O)NC(=O)NCC(F)(F)F)c1ccccc1 (stereo not drawn)",
    "Quantity measured": "Percent Effect",
    "Data value": 7.36
  },
  {
    "Compound": "Cc1ccc(C)c(NC(=O)N(C)Cc2cnn(C)c2)c1",
    "Quantity measured": "Percent Effect",
    "Data value": 11.3
  },
  {
    "Compound": "CNc1cc(N2CCCC2CNCc2ccccn2)ncn1 (stereo not drawn)",
    "Quantity measured": "Percent Effect",
    "Data value": 16
  },
  {
    "Compound": "CC(=O)Nc1nc(C(=O)N2CCCC2c2noc(C)n2)cs1 (stereo not drawn)",
    "Quantity measured": "Percent Effect",
    "Data value": -2.2
  },
  {
    "Compound": "CN(C)CC1CSCCCN1C(=O)c1ccc(=O)[nH]c1 (stereo not drawn)",
    "Quantity measured": "Percent Effect",
    "Data value": 7.66
  },
  {
    "Compound": "CCn1nc(C)c(CCn2ccnc2-c2cc3n(n2)CCCNC3)c1C",
    "Quantity measured": "Percent Effect",
    "Data value": 8.2
  },
  {
    "Compound": "CCOCCCNC(=O)c1cn(CC)nc1C",
    "Quantity measured": "Percent Effect",
    "Data value": 15.3
  }
]

[ask] What reported Percent Effect corresponds to CC(CNc1cncc(-n2cccn2)n1)N(C)c1ccccc1 (stereo not drawn) on Proteasome subunit beta (Trypanosoma cruzi) (UniProt O96673)?
[reply] 1.52

[ask] One more compound: CCc1nnc(CNCC2CCCN2c2cccnn2)o1 (stereo not drawn)
[reply] 5.57

[ask] And what about the compound CN(CC1(O)CCCCC1)C1CCCN(Cc2noc(C3CC3)n2)C1 (stereo not drawn) ?
[reply] 10.9
